Please respond with reported log10 EC50 for every item in the list.
test system: VZV; assay: Viral qPCR assay, VZV; assay type: cell-based, varicella zoster virus; settings: Human alphaherpesvirus 3, 72 h, MeWo or MRC5 cells, 0.04-0.1 pfu/cell, growth medium, viral genome copies by qPCR
Record value = log10 of EC50 given in nM.

The following compounds have reported results that may help.
> print(dat)
                                   compound  system.tested  endpoint.label  number
1  COc1nc(-c2cnn(C(C)(C)C)c2)c(O[C@H]2CCN3C(=O)OC[C@@H]3C2)cc1C(=O)NCc1ccc(Cl)cc1            VZV      log10 EC50    3.10
2  COc1nc(-c2ccc(=O)[nH]c2)c(O[C@H]2CCN3C(=O)OC[C@@H]3C2)cc1C(=O)NCc1ccc(Cl)cc1            VZV      log10 EC50    3.37
3  COCCOc1nc(-c2cnn(C(F)F)c2)c(O[C@H]2CCN3C(=O)OC[C@@H]3C2)cc1C(=O)NCc1ccc(Cl)cc1            VZV      log10 EC50    2.53

State the recorded log10 EC50 for every item in the following list.
1. COc1nc(N2CCC(C(C)(C)N)C2)c(O[C@H]2CCN3C(=O)OC[C@@H]3C2)cc1C(=O)NCc1ccc(Cl)cc1 (single isomer, unassigned)
2. COc1nc(-c2cnco2)c(O[C@H]2CCN3C(=O)OC[C@@H]3C2)cc1C(=O)NCc1ccc(C#N)cc1
3. COc1nc(N2CC3(CC(O)C3)C2)c(O[C@H]2CCN3C(=O)OC[C@@H]3C2)cc1C(=O)NCc1ccc(Cl)cc1
4. COc1nc(-c2cnc(C)o2)c(O[C@H]2CCN3C(=O)OC[C@@H]3C2)cc1C(=O)NCc1ccc(Cl)cc1

Ans.
1. 2.67
2. 1.96
3. 2.81
4. 2.03

State the recorded log10 EC50 for every item in the following list.
1. COc1nc(Br)c(O[C@H]2CCN3C(=O)OC[C@@H]3C2)cc1C(=O)NCc1ccc(Cl)cc1
2. O=C(NCc1ccc(Cl)cc1)c1cc(O[C@H]2CCN3C(=O)OC[C@@H]3C2)c(-c2cnn(C(F)F)c2)nc1OCCO
3. COc1nc(-c2ccc(N)nc2)c(O[C@H]2CCN3C(=O)OC[C@@H]3C2)cc1C(=O)NCc1ccc(Cl)cc1
4. COc1nc(-c2cnc(C(C)(C)O)s2)c(O[C@H]2CCN3C(=O)OC[C@@H]3C2)cc1C(=O)NCc1ccc(Cl)cc1
5. COc1nc(-c2ccn(C)c2)c(O[C@H]2CCN3C(=O)OC[C@@H]3C2)cc1C(=O)NCc1ccc(Cl)cc1
6. COc1nc(-c2cnn(CCO)c2)c(O[C@H]2CCN3C(=O)OC[C@@H]3C2)cc1C(=O)NCc1ccc(Cl)cc1

Ans.
2.81
2.15
1.97
2.31
2.27
2.03

Qu. Given the entry `COc1nc(-c2cnn(C(F)F)c2)c(O[C@H]2CCN3C(=O)OC[C@@H]3C2)cc1C(=O)NCc1ccc(C#N)c(F)c1` , report its measured log10 EC50.
Ans. 2.01

====

molecular target: Human cytomegalovirus DNA polymerase (Human cytomegalovirus); construct: made in house; host or cells: SF21 insect cells (baculovirus vector); test: CMV polymerase assay (AlphaLISA); assay type: biochemical; conditions: HCMV polymerase 0.2 nM; 30 min pre-incubation; 60 min at 37° C.; read-out: CMV (IC50)
Please respond with reported IC50 for every item in the list.
Numbers only, in nM.

The following compounds have reported results that may help.
> print(dat)
                                   compound  number
1  COc1nc(N2CCC(C(C)(C)O)C2)c(O[C@H]2CCN3C(=O)OC[C@@H]3C2)cc1C(=O)NCc1ccc(Cl)cc1 (stereo partly drawn) [Compound 67]    22.9
2  Cc1nsc(-c2nc(OCC(C)(C)O)c(C(=O)NCc3ccc(Cl)cc3)cc2O[C@H]2CCN3C(=O)OC[C@@H]3C2)n1    5.13

Qu. Given the entry `COc1nc(-c2cnn(C(F)F)c2)c(O[C@H]2CCN3C(=O)OC[C@@H]3C2)cc1C(=O)NCc1cc(F)c(Cl)c(F)c1` , report its measured IC50.
Ans. 6.13

====

test system: VZV; test: Viral qPCR assay, VZV; type: cell-based, varicella zoster virus; settings: Human alphaherpesvirus 3, 72 h, MeWo or MRC5 cells, 0.04-0.1 pfu/cell, growth medium, viral genome copies by qPCR
// returns Condition not met unless EC50 is strictly below 300 nM, in which case Condition met

Field: example entries. Status: answers known.
> print(dat)
                           molecular.string  assigned.category
1  COc1nc(-c2nnc(C3CC3)s2)c(O[C@H]2CCN3C(=O)OC[C@@H]3C2)cc1C(=O)NCc1ccc(Cl)cc1      Condition met
2  COc1nc(-c2occc2C=O)c(O[C@H]2CCN3C(=O)OC[C@@H]3C2)cc1C(=O)NCc1ccc(Cl)cc1      Condition met

Qu. API: query returns whether the compound falls strictly under 300 nM in EC50. Query: `O=C(NCc1ccc(Cl)cc1)c1cc(O[C@H]2CCN3C(=O)OC[C@@H]3C2)c(-c2cnn(C(F)F)c2)nc1OCCF`
Ans. Condition met

====

target: Human cytomegalovirus DNA polymerase (Human cytomegalovirus, UniProt P08546); construct: made in house; host or cells: SF21 insect cells (baculovirus vector); assay: CMV polymerase assay (AlphaLISA); assay type: biochemical; settings: HCMV polymerase 0.2 nM; 30 min pre-incubation; 60 min at 37° C.; read-out: CMV (IC50)
Sequence (P08546 whole entry): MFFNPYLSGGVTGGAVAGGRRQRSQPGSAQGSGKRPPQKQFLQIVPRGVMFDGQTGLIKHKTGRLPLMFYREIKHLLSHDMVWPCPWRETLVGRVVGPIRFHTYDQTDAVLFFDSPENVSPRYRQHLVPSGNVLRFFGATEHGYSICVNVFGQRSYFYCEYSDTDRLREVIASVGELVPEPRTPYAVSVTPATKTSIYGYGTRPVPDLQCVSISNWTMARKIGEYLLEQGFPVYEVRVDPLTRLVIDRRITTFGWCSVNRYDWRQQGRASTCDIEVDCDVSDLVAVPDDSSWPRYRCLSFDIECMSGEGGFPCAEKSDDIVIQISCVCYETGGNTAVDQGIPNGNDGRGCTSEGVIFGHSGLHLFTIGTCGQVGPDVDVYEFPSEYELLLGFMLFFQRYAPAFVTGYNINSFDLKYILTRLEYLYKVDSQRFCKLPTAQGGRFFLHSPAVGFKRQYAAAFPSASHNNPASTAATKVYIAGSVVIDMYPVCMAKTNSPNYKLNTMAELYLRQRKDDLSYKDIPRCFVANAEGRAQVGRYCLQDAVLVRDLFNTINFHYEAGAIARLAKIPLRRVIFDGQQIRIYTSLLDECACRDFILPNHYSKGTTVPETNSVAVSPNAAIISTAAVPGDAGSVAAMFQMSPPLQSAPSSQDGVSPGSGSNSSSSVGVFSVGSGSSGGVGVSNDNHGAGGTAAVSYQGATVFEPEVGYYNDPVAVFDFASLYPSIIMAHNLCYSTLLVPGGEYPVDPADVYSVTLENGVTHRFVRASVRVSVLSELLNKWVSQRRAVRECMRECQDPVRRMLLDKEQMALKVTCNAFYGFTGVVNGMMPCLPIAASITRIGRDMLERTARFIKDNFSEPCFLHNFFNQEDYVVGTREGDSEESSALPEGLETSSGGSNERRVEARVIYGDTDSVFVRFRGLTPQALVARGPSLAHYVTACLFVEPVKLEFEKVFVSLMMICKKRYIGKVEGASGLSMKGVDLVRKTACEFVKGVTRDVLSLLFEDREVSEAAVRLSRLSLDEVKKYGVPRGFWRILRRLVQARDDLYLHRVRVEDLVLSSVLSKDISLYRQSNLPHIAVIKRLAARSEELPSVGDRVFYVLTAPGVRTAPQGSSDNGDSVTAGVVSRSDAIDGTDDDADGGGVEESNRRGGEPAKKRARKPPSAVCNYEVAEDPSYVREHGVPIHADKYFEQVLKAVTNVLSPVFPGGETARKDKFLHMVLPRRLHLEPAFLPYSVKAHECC
// returns n unless IC50 is strictly below 10 nM, in which case y

Field: example entries. Status: answers known.
> print(dat)
                                   compound  assigned.category
1  COc1nc(-c2ccoc2)c(O[C@H]2CCN3C(=O)OC[C@@H]3C2)cc1C(=O)NCc1ccc(Cl)cc1                  n
2  COc1nc(-c2ccc(N)nc2)c(O[C@H]2CCN3C(=O)OC[C@@H]3C2)cc1C(=O)NCc1ccc(Cl)cc1                  y
3  COCCn1cc(-c2nc(OC)c(C(=O)NCc3ccc(Cl)cc3)cc2O[C@H]2CCN3C(=O)OC[C@@H]3C2)cn1                  y

Qu. API: query returns whether the compound falls strictly under 10 nM in IC50. Query: `NC(=O)CCOc1nc(-c2cnn(C(F)F)c2)c(O[C@H]2CCN3C(=O)OC[C@@H]3C2)cc1C(=O)NCc1ccc(Cl)cc1`
Ans. y

Qu. API: query returns whether the compound falls strictly under 10 nM in IC50. Query: `COc1nc(-c2ncco2)c(O[C@H]2CCN3C(=O)OC[C@@H]3C2)cc1C(=O)NCc1ccc(Cl)cc1`
Ans. y

Qu. API: query returns whether the compound falls strictly under 10 nM in IC50. Query: `COc1nc(-c2ccnc3[nH]ccc23)c(O[C@H]2CCN3C(=O)OC[C@@H]3C2)cc1C(=O)NCc1ccc(Cl)cc1`
Ans. n

Qu. API: query returns whether the compound falls strictly under 10 nM in IC50. Query: COc1nc(C2CC(O)C2)c(O[C@H]2CCN3C(=O)OC[C@@H]3C2)cc1C(=O)NCc1ccc(Cl)cc1 (single isomer, unassigned)
Ans. n

====

target: Human cytomegalovirus DNA polymerase (Human cytomegalovirus, UniProt P08546); construct: made in house; host or cells: SF21 insect cells (baculovirus vector); experiment: CMV polymerase assay (AlphaLISA); assay type: biochemical; details: HCMV polymerase 0.2 nM; 30 min pre-incubation; 60 min at 37° C.; read-out: CMV (IC50)
endpoint.label: IC50
Could you give the number and then its unit, please?

State the recorded IC50 for every item in the following list.
1. COc1nc(-c2cc3ccccc3o2)c(O[C@H]2CCN3C(=O)OC[C@@H]3C2)cc1C(=O)NCc1ccc(Cl)cc1
2. COc1nc(-c2cc[nH]n2)c(O[C@H]2CCN3C(=O)OC[C@@H]3C2)cc1C(=O)NCc1ccc(Cl)cc1

Ans.
1. 25.3 nM
2. 19.6 nM

State the recorded IC50 for every item in the following list.
1. COc1nc(-c2ccc(=O)[nH]c2)c(O[C@H]2CCN3C(=O)OC[C@@H]3C2)cc1C(=O)NCc1ccc(Cl)cc1
2. COc1nc(-c2cnc(C3CC3)s2)c(O[C@H]2CCN3C(=O)OC[C@@H]3C2)cc1C(=O)NCc1ccc(Cl)cc1

Ans.
1: 4.87 nM; 2: 8.74 nM

====

Biological target: Human cytomegalovirus DNA polymerase (Human cytomegalovirus)
Construct: made in house; host or cells: SF21 insect cells (baculovirus vector)
Test: CMV polymerase assay (AlphaLISA)
Format: biochemical
Conditions: HCMV polymerase 0.2 nM; 30 min pre-incubation; 60 min at 37° C.; read-out: CMV (IC50)
Description: Human cytomegalovirus and varicella zoster virus DNA polymerases were expressed via baculovirus vector in SF21 cells and purified. Heterodimeric nucleic acid substrate used in the herpesvirus polymerase reactions was generated by annealing a 59-mer template to a 17-mer digoxigenin-labeled primer. […] Incorporation of biotinylated UTP was detected with 2.5-5 ug/ml anti-DIG AlphaLISA acceptor beads and 5-10 ug/ml streptavidin AlphaLISA donor beads (PerkinElmer). […]
endpoint.label: pIC50
Answers are plain numbers, as −log10 of the molar value.

> print(dat)
                           molecular.string  number
1  COc1nc(-c2cnc(C)o2)c(O[C@H]2CCN3C(=O)OC[C@@H]3C2)cc1C(=O)NCc1ccc(Cl)cc1    8.39

State the recorded pIC50 for every item in the following list.
1. COc1nc(-c2cnn(C(F)F)c2)c(O[C@H]2CCN3C(=O)OC[C@@H]3C2)cc1C(=O)NCc1ccc(C#N)c(F)c1
2. COc1nc(-c2cnn(C(F)F)c2)c(O[C@H]2CCN3C(=O)OC[C@@H]3C2)cc1C(=O)NCc1ccc(C#N)cc1F
3. COc1nc(-c2cc(C)ns2)c(O[C@H]2CCN3C(=O)OC[C@@H]3C2)cc1C(=O)NCc1ccc(Cl)cc1

Ans.
1. 8.53
2. 8.49
3. 8.88
